Target Of Assay: TARP γ8 dependent AMPA receptor (GluA1o-g8 fusion channel) (Homo sapiens (Human), UniProt P42261+Q8WXS5)
Sequence (P42261 other isoform, or with tags, fused parts or gaps): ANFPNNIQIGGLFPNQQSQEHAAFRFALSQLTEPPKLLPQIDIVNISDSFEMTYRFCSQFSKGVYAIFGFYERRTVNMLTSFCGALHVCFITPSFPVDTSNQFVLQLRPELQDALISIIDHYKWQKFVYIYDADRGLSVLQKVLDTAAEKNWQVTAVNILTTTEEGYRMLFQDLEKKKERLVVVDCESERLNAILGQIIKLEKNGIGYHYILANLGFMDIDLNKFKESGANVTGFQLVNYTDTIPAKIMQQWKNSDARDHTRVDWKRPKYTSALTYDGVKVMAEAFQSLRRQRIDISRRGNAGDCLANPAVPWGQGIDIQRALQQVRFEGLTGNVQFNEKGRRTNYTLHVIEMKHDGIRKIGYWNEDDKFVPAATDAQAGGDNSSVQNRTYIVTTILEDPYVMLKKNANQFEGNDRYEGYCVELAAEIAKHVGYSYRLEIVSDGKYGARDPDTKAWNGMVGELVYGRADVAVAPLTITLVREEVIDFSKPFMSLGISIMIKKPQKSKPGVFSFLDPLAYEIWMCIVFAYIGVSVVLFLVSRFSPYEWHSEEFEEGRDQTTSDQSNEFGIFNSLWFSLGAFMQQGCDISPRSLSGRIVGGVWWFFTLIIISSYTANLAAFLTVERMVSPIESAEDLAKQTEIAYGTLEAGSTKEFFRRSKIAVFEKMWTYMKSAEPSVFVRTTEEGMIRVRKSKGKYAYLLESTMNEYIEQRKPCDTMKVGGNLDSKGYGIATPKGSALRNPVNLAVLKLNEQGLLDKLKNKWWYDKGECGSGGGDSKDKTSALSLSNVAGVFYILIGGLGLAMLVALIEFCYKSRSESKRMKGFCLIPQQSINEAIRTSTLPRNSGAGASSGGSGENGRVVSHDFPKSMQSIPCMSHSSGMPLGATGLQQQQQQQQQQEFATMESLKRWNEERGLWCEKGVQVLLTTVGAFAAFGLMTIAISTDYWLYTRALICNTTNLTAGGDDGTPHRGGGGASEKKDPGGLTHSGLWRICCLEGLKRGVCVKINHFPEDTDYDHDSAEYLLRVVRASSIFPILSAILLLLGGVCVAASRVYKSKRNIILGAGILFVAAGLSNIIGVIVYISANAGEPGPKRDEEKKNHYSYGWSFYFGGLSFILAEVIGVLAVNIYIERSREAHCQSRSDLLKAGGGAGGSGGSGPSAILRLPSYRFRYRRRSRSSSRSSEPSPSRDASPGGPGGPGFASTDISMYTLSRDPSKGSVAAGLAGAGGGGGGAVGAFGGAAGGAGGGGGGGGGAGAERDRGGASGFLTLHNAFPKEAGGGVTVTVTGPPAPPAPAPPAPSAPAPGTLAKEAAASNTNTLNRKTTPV
Procedure Text: Calcium flux assay (FLIPR), HEK293 cells expressing GRIA1o-CACNG8 fusion
Format: cell-based
Condition Details: inhibition of calcium flux after 15 μM glutamate, read-out: GluR1-γ8 pIC50 (converted)
Assay Metric: IC50 (nM)

Example compounds with recorded IC50:
[[record]]
compound = "O=c1[nH]c2ccc(-c3cccc(-n4ccnc4)c3Cl)cc2[nH]1"
number = 3160

[[record]]
compound = "Cc1c(-c2ccc3[nH]c(=O)sc3c2)cccc1-c1ncon1"
number = 126

[[record]]
compound = "C[C@H](Oc1cccc(Cl)c1-c1ccc2[nH]c(=O)[nH]c2c1)C(F)(F)F (single isomer, unassigned)"
number = 79.4

[[record]]
compound = "O=c1[nH]c2ccc(-c3c(Cl)cncc3Cl)cc2[nH]1"
number = 501

[[record]]
compound = "CC(C)c1ccccc1-c1ccc2[nH]c(=O)[nH]c2c1"
number = 316


a: O=c1[nH]c2ccc(-c3cc(Cl)ccc3Cl)cc2[nH]1
b: N#CCc1cccc(-c2ccc(F)cc2)c1-c1ccc2[nH]c(=O)[nH]c2c1
c: O=c1[nH]c2ccc(-c3cccc(CN4CCOC(C(F)(F)F)C4)c3Cl)cc2[nH]1 (racemic)
d: Cc1ccc(OCC(C)C)c(-c2ccc3[nH]c(=O)[nH]c3c2)c1
e: CC(C)Oc1c(Cl)cccc1-c1ccc2[nH]c(=O)[nH]c2c1
Qu. # ascending order, key=IC50 Put the labels in the requested order and write them down.
Ans. b, d, c, a, e

FYI, the data here is from patent US10611730B2.
